Examples of molecules with documented LDH.3µM follow.
# Tested on: COS-1 cells
# assay.method.text: LDH assay (necrosis)
# Assay type: cell-based
# test.conditions: 3 µM
Kindly provide the number alone.

Solved cases (6 shown):
{"columns": ["molecule", "recorded.measurement"],
 "data": [
  ["Cc1onc(-c2ccccc2)c1C(=O)Nc1ccc2oc(-c3ccccc3)cc(=O)c2c1", 0.38],
  ["CC(=O)N(Cc1ccc(N(C)C)cc1)c1c(-c2ccccc2)noc1C", -0.52],
  ["CCN(CC)c1ccc(NC(=O)c2cnc3ncccn23)cc1 [Compound 47aa]", 1],
  ["CCN(CC)c1ccc(NC(=O)c2csc(C)c2-c2ccccc2)cc1 [Compound 47t]", 1.08],
  ["CCC(=O)N(Cc1ccc(N(CC)CC)cc1)c1c(-c2ccccc2)noc1C", -0.8],
  ["CCN(CC)c1ccc(NC(=O)c2cc(C)oc2-c2ccccc2)cc1", 0.88]
]}

Problem: Bench note: what LDH.3µM did "COc1ccc(-c2cc(N)nn2C(=O)c2c(-c3ccccc3)noc2C)cc1" show?
Result: 2.98

Problem: Repeat with "CCN(c1ccc(NC(=O)c2c(-c3ccccc3)noc2C)cc1)C(C)C"
Result: 0.18

Problem: Would you mind doing CCN(CC)c1ccc(NC(=O)c2snnc2-c2ccccc2)cc1 [Compound 47n] as well?
Result: 1.32

----------
# tested.system: GATA4–NKX2-5 transcriptional synergy (Mus musculus, UniProt P42582+Q08369)
# Construct: expressed in transfected cells; host or cells: COS-1
# Sequence (Q08369 whole entry): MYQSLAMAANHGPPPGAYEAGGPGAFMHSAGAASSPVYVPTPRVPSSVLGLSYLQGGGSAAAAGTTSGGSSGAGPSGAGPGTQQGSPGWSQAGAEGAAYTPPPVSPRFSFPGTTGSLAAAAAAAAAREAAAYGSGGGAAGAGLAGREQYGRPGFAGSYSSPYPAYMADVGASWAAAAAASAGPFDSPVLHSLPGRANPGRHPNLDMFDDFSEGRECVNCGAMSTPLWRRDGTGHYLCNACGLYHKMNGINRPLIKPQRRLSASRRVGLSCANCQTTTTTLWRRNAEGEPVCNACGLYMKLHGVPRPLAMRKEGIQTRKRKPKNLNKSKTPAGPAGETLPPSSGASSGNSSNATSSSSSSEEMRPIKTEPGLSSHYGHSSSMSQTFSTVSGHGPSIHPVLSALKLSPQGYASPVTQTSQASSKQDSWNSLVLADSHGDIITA
# Sequence (P42582 whole entry): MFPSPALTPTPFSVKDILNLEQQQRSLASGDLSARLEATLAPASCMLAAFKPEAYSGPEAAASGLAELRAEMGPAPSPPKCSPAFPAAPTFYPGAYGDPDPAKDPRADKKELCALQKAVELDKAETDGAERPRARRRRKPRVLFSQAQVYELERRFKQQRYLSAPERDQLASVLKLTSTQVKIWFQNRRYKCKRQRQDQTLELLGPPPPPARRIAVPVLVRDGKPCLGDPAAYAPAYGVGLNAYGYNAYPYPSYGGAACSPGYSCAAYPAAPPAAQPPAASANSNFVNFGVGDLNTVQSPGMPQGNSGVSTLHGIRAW
# assay.method.text: GATA4–NKX2-5 transcriptional synergy luciferase reporter assay (3xNKE reporter, COS-1 cells)
# Assay type: cell-based
# test.conditions: COS-1; GATA4-NKX2-5 transcriptional synergy luciferase reporter assay, compound at 10 µM
measure.name: activity at 10 µM (%)
Lab book: enter the figure in %, no units written.

Reference set, count: 2
{"columns": ["molecule", "tested.system", "activity at 10 µM, %"],
 "data": [
  ["CC(C)c1ccc(NC(=O)c2noc3c2CCc2sccc2-3)cc1 [Compound 66]", "GATA4–NKX2-5 transcriptional synergy (Mus musculus, UniProt P42582+Q08369)", 128],
  ["O=C(Nc1ccc(F)c(Cl)c1)c1cnoc1-c1ccco1 [SI124]", "GATA4–NKX2-5 transcriptional synergy (Mus musculus, UniProt P42582+Q08369)", 102]
]}

Problem: // fetch GATA4–NKX2-5 transcriptional synergy (Mus musculus, UniProt P42582+Q08369) activity at 10 µM for Cc1cc(-c2noc(C)c2C(=O)Nc2cccc(Cl)c2)no1 [SI136]
Result: 82.5

Problem: Also, CCN(CC)c1ccc(NC(=O)c2c(-c3cccc(Br)c3)noc2C)c(C)c1 [SI131] please.
Result: 88.3

Problem: Let us now turn to COc1cc(C(=O)Nc2cc(-c3ccncc3)n[nH]2)ccc1C [SI123]
Result: 72.3

Problem: Same for CCC1(C)Oc2ccc(NC(=O)c3cnoc3-c3ccc(C)o3)cc2O1 (stereo not shown) [SI125]
Result: 91.7

Problem: Same question, CCN(CC)c1ccc(NC(=O)c2c(-c3ccccn3)noc2C)cc1 [Compound 59] this time
Result: 104

----------
Collected MTT.1µM values appear next to each entry.
# System: COS-1 cells
# assay.method.text: MTT assay (cell viability)
# Assay type: cell-based
# test.conditions: 1 µM; cell viability
# answer = number (no unit)

Some entries whose results are on file:
{"columns": ["compound", "measure.name", "recorded.measurement"],
 "data": [
  ["CCN(CC)c1ccc(NC(=O)c2c(C)noc2-c2ccccc2)cc1 [Compound 65]", "MTT.1µM", 96.79],
  ["CCN(CC)c1ccc(NC(=O)c2cnc(SC)n2-c2ccc(F)cc2)cc1 [Compound 47z]", "MTT.1µM", 102.53]
]}

Field: next compound
Problem: Recorded MTT.1µM for CCN(CC)c1ccc(NC(=O)c2csc(C)c2-c2ccccc2)cc1 [Compound 47t] , please?
Result: 106.87
